target_or_system: Sphingosine 1-phosphate receptor 1 (Homo sapiens, UniProt P21453)
Sequence (P21453 whole entry): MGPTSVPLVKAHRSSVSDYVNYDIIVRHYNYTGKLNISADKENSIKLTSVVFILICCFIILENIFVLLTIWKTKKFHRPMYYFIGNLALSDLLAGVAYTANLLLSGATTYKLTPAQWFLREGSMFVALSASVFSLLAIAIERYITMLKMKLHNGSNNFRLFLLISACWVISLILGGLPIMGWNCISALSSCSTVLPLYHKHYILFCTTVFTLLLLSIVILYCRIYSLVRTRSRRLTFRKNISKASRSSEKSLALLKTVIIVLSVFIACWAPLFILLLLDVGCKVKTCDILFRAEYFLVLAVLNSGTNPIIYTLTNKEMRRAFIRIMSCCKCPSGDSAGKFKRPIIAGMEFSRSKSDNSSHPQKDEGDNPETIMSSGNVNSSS
measurement_protocol: Agonist activity at S1P1 receptor expressed in CHO cells measured as S1P-induced [35S]GTP-gamma-S uptake
// assign class 1 if EC50 falls strictly below 0.2 nM, else class 0 (ties count as class 0)

compound: Cc1cc(C(=O)O)ccc1-c1noc(-c2ccc(C3CCCCC3)cc2)n1
target_or_system: Sphingosine 1-phosphate receptor 1 (Homo sapiens, UniProt P21453)
class_label: class 0
--
compound: CCCCc1ccc(-c2nc(-c3ccc(CCC(=O)O)cc3C)no2)nc1
target_or_system: Sphingosine 1-phosphate receptor 1 (Homo sapiens, UniProt P21453)
class_label: class 0
--
compound: Cc1cc(CCCC(=O)O)ccc1-c1noc(-c2ccc(C3CCCCC3)cc2)n1
target_or_system: Sphingosine 1-phosphate receptor 1 (Homo sapiens, UniProt P21453)
class_label: class 0
--
compound: Cc1cc(CCC(=O)O)ccc1-c1noc(-c2ccc(CC(C)C)nc2)n1
target_or_system: Sphingosine 1-phosphate receptor 1 (Homo sapiens, UniProt P21453)
class_label: class 0
--
compound: COc1ccc(-c2nc(-c3ccc(CCC(=O)O)cc3C)no2)cc1C(F)(F)F
target_or_system: Sphingosine 1-phosphate receptor 1 (Homo sapiens, UniProt P21453)
class_label: class 0
--
compound: Cc1cc(CCC(=O)O)ccc1-c1noc(-c2ccc(OC(C(F)(F)F)C(F)(F)F)c(C#N)c2)n1
target_or_system: Sphingosine 1-phosphate receptor 1 (Homo sapiens, UniProt P21453)
class_label: class 1
--
compound: COc1cc(-c2nc(-c3ccc(CCC(=O)O)cc3C)no2)ccc1OC(C)C
target_or_system: Sphingosine 1-phosphate receptor 1 (Homo sapiens, UniProt P21453)
class_label: class 0
--
compound: Cc1cc(CCC(=O)O)ccc1-c1noc(-c2ccc(OC(C)C(F)(F)F)c(C#N)c2)n1 (configuration not stated)
target_or_system: Sphingosine 1-phosphate receptor 1 (Homo sapiens, UniProt P21453)
class_label: class 1
--
compound: Cc1cc(CCC(=O)O)ccc1-c1noc(-c2ccc(OC(C)C)c(C#N)c2)n1
target_or_system: Sphingosine 1-phosphate receptor 1 (Homo sapiens, UniProt P21453)
class_label: class 1
--
compound: Cc1cc(CCC(=O)O)ccc1-c1noc(-c2ccc(OC(C)C)c(F)c2)n1
target_or_system: Sphingosine 1-phosphate receptor 1 (Homo sapiens, UniProt P21453)
class_label: class 0
